system: HBV; assay: Inhibition of HBV proliferation in HBV producing cell line HepG 2.2.15 (competitive PCR of culture supernatant); format: cell-based, Hepatitis B virus; details: Hepatitis B virus, HepG2.2.15, 168 h; 1 μg/ml, HepG 2.2.15, one week; read-out: Inhibitory effect on the HBV proliferation, Inhibition activity on HBV-RT (%)
measuredMetric: inhibition at 1 µg/mL

Before answering, review these 4 worked examples.
INSERT INTO assay_data (compound, resultvalue) VALUES
  ('CSc1ncc(C(=O)NN2CCOCC2)c(Nc2ccc3[nH]ncc3c2)n1 [Example 35]', '86%'),
  ('CSc1ncc(C(=O)NCc2cccnc2)c(Nc2ccc3cn[nH]c3c2)n1 [Example 26]', '97%'),
  ('CSc1ncc(C(=O)NCCc2ccccn2)c(Nc2ccc3cn[nH]c3c2)n1 [Example 28]', '93%'),
  ('CSc1ncc(C(=O)NCCO)c(Nc2ccc3[nH]ncc3c2)n1 [Example 7]', '92%');

Could you now consider this next compound?
QUERY: # input compound: Nc1ccn([C@@H]2CS[C@H](CO)O2)c(=O)n1 [Example 3TC, lamivudine, reference compound] ; wanted: its inhibition at 1 µg/mL
RESULT: 99%
